Tested on: BT-549 breast
Assay: NCI tumour cell line growth inhibition, 48 h
TGI by entry:

compound	target_system	TGI
COc1cc2c(cc1OCCCN1CCN(CCCOc3cc4c(cc3OC)C(=O)N3C[C@H](F)C[C@H]3C=N4)CC1)N=C[C@@H]1C[C@@H](F)CN1C2=O	BT-549 breast	0.464 µM
N#Cc1ccccc1NC(=O)C(O)C(O)C(O)C(O)C=O (configuration not stated)	BT-549 breast	> 100 µM
Clc1nc(NC23CC4CC(CC(C4)C2)C3)nc(NC23CC4CC(CC(C4)C2)C3)n1	BT-549 breast	> 100 µM
Nc1ncnc2occ(-c3ccc(NC(=O)Nc4cccc(C(F)(F)F)c4)cc3)c12	BT-549 breast	10.5 µM
O=C1C=CC(=O)N1c1ccc2ccccc2c1	BT-549 breast	27.8 µM
C#CCNC(CCCN=C(N)N)C(=O)O (configuration not stated)	BT-549 breast	> 100 µM
Cc1nc2ccccc2c(/C=C/c2ccc(F)cc2)c1C(=O)/C=C/c1ccccc1	BT-549 breast	13.6 µM
CCCCCCCCCCCCCCCCNc1nc(=O)n(C2CC(O)C(COP(=O)(O)OC3CC(n4cc(F)c(=O)[nH]c4=O)OC3CO)O2)cc1F (configuration not stated)	BT-549 breast	35.3 µM
c1ccc([P+](Cc2ccc(C[P+](c3ccccc3)(c3ccccc3)c3ccccc3)s2)(c2ccccc2)c2ccccc2)cc1	BT-549 breast	> 100 µM
O=C(Cn1c(C(=O)/C=C/c2ccc(Cl)c(Cl)c2)nc2ccccc21)c1ccccc1	BT-549 breast	99.3 µM
CCOc1ccc(NC(=O)/C=C/c2ccco2)cc1	BT-549 breast	> 100 µM
CC1=NN(c2nc(N)nc(CCl)n2)C(C)(C)C1	BT-549 breast	> 82.5 µM
O=C1OC(=O)c2c1cc1cc3c(cc1c2-c1ccc2c(c1)OCO2)OCO3	BT-549 breast	> 100 µM
CC(=O)OC1CCC2(C)C(=CCC3C2CCC2(C)C3CC3OC4(CCC(C)CN4)C(C)C32)C1 (configuration not stated)	BT-549 breast	> 100 µM
ON[C@@H]1C=C[C@H](n2cnc3c(NC4CC4)ncnc32)C1	BT-549 breast	> 100 µM
COP(=O)(OC)[C@@](O)(c1ccccc1)[C@@H](O)[C@@H](O)c1ccccc1	BT-549 breast	> 100 µM
CCc1cccc(CC)c1Nc1nc(-c2ccccc2-c2ccccc2)cs1	BT-549 breast	84.8 µM
CCOC(=O)c1nc2sc(Cl)cn2c1/C=N/N=C(N)N	BT-549 breast	> 59.6 µM
Cc1cc(N)c2cc(NC(=O)/C=C\c3ccccc3Cl)ccc2n1	BT-549 breast	3.01 µM
CCCCCCCCCCCCNCCCc1ccccc1	BT-549 breast	3.19 µM
COC(=O)/C=C1/OC(c2ccccc2)=C(Br)C1=O	BT-549 breast	53.4 µM
NC(=S)N/N=C1\CCc2ccccc2C1	BT-549 breast	> 100 µM
Cc1ncc2c(n1)CCC1=C2OS(=O)(=O)CC1N(C)C (configuration not stated)	BT-549 breast	> 100 µM
NNC(=O)c1cc(Cl)ccc1NC(=O)C12CC3CC(CC(C3)C1)C2	BT-549 breast	> 100 µM
Cc1c(C(=O)Nc2ccc(Oc3ccnc4cc(OCC(C)(C)O)ccc34)c(F)c2)c(=O)n(-c2ccccc2)n1C	BT-549 breast	> 100 µM
CC(C)(C)c1ccc(OCCCCCCCN2CCNCC2)cc1	BT-549 breast	3.01 µM
CCCCCCCCCCCC(=O)OCC(O)CO (configuration not stated)	BT-549 breast	> 100 µM
CCn1cnc(C[C@H](NC(=O)[C@@H](NC(=O)Nc2cc(C(F)(F)F)cc(C(F)(F)F)c2)C(C)(C)C)C(=O)OC)c1	BT-549 breast	> 10 µM
O=C(O)C(C1NCCS1)N1C(=O)c2ccccc2C1=O (configuration not stated)	BT-549 breast	> 100 µM
COc1ccc2c(c1)C1Oc3ccccc3CC1CO2 (configuration not stated)	BT-549 breast	> 100 µM
C=CCC(NCc1ccccc1)c1cn(C(=O)OCC)c2ccccc12 (configuration not stated)	BT-549 breast	46.9 µM
COc1cnc2oc3ccc(O)cc3c2c1-c1ccccc1	BT-549 breast	> 100 µM
CN(C)Cc1c[nH]c2nc[nH]c(=O)c12	BT-549 breast	> 100 µM
COc1cccc(C2=C(c3cn(C)c4c(C)cccc34)C(=O)NC2=O)c1	BT-549 breast	> 25 µM
O=C(NCCc1nccs1)c1cnc2c(S)cccc2c1	BT-549 breast	> 100 µM
COC(=O)c1c(C)c2c(c(C)c1O)OC(=O)c1c(C)cc(O)c(C=O)c1O2	BT-549 breast	> 100 µM
N#Cc1ccc(N=NN2CCCC2)cc1	BT-549 breast	> 100 µM
COc1cccc2c1C(=O)c1c(O)c3c(c(O)c1C2=O)C[C@@](O)(C(=O)CO)C[C@@H]3OC1CC2C(OCN2CN2COC3C(C)OC(O[C@H]4C[C@](O)(C(=O)CO)Cc5c(O)c6c(c(O)c54)C(=O)c4c(OC)cccc4C6=O)CC32)C(C)O1 (some centres not stated)	BT-549 breast	> 0.46 µM
NC(N)=NS(=O)(=O)c1ccc(NCc2cccc3c(=O)c4ccc(Cl)cc4oc23)cc1	BT-549 breast	> 14.4 µM
CSc1cc(Cl)c(C(=O)Nc2ccccc2)cc1S(=O)(=O)n1cc[nH]c1=O	BT-549 breast	> 100 µM
CC(C)CC1C(=O)OC(C)(C)OC1=O	BT-549 breast	> 100 µM
CC(C)OC(=O)NNc1c(Cl)cc(Cl)cc1Cl	BT-549 breast	> 100 µM
